# experimentalSystem: unphosphorylated PDGFRβ kinase (uPDGFRβ, Seq. ID No. 3) (Homo sapiens, UniProt P09619)
# Sequence (P09619 557-1106): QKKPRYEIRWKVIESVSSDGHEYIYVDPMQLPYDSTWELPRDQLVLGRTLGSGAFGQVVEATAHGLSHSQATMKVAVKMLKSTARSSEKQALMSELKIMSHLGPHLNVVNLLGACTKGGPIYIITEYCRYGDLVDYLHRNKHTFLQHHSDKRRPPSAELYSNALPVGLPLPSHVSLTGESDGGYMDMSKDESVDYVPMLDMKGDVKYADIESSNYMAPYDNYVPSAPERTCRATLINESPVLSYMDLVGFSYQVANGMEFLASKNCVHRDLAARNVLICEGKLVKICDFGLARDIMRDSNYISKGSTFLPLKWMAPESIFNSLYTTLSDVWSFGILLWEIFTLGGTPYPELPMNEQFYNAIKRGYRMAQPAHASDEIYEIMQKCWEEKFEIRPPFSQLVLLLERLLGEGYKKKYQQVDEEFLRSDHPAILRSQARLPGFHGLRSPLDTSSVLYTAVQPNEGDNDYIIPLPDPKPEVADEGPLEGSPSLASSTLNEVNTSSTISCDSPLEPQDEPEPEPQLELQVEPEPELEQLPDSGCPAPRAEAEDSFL
# protocolDetails: biochemical
# runConditions: uPDGFRb, enzymatic assay, ATP 500 μM
quantity: IC50

>>> recordedvalue("CCc1nc(NC(=O)NC(=O)C2(OC)CC2)ccc1Oc1ccnc(-c2cnn(C)c2)c1")
"> 1000 nM"
>>> recordedvalue("CNc1ccc(-c2cc(Oc3ccc(NC(=O)NC(=O)C(C)(C)C)nc3)ccn2)cn1")
"100 to 1000 nM"
>>> recordedvalue("Cc1ncc(-c2cc(Oc3ccc(NC(=O)NC(=O)C(C)(C)C)nc3)ccn2)s1")
"100 to 1000 nM"
>>> recordedvalue("Cc1cc(-c2cc(Oc3ccc(NC(=O)NC(=O)C(C)(C)C)nc3C)ccn2)on1")
"> 1000 nM"
>>> recordedvalue("CCOC(C)(C)C(=O)NC(=O)Nc1ccc(Oc2ccnc(-c3cnc(C)s3)c2)cn1")
"> 1000 nM"
>>> recordedvalue("Cc1nc(NC(=O)NC(=O)C(C)(C)C)ccc1Oc1ccnc(-c2c[nH]nn2)c1")
"> 1000 nM"

Read off the recorded IC50 for Cc1nc(NC(=O)NC(=O)C2CCC(F)(F)CC2)ccc1Oc1ccnc(-c2cnn(C)c2)c1
100 to 1000 nM

Identify measured IC50 associated with Cc1nc(NC(=O)NC(=O)C23CC4CC(CC(C4)C2)C3)ccc1Oc1ccnc(-c2cnn(C)c2)c1
10 to 100 nM

* * *

# experimentalSystem: unphosphorylated c-KIT kinase (uKIT, Seq. ID no. 2) (Homo sapiens, UniProt P10721)
# Sequence (P10721 with tags, fused parts or gaps): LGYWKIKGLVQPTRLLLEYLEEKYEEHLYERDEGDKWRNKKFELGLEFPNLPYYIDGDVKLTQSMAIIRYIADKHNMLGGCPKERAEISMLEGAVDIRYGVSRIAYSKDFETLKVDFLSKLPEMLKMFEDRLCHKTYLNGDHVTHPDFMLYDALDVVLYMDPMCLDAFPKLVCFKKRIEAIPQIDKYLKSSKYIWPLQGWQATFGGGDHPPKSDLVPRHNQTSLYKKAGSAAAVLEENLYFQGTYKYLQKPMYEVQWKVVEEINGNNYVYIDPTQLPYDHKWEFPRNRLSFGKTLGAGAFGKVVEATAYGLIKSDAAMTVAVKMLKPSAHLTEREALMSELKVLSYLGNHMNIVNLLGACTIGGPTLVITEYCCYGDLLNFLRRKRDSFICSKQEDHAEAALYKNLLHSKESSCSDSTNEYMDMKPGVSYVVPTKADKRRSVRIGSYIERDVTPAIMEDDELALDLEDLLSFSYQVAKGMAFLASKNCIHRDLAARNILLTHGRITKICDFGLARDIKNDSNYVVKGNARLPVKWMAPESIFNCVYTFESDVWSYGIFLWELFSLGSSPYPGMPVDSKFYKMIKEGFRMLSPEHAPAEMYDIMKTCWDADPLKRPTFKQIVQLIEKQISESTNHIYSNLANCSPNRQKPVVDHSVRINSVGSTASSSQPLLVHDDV
# protocolDetails: biochemical
# runConditions: IC50 (nM) uKIT, Table 3
quantity: IC50 (nM)

>>> recordedvalue("Cc1cc(-c2cc(Oc3ccc(NC(=O)NC(=O)C(C)(C)C)nc3C)ccn2)ccn1")
3100
>>> recordedvalue("Cc1ncc(-c2cc(Oc3ccc(NC(=O)NC(=O)C(C)(C)C)nc3)ccn2)s1")
2600

[A] Cn1cc(-c2cc(Oc3ccc(NC(=O)NC(=O)CC4CCOCC4)nc3)ccn2)cn1
[B] Cc1cn(-c2cc(Oc3ccc(NC(=O)NC(=O)C(C)(C)C)nc3)ccn2)cn1
When the recorded IC50 values are compared, which is smaller: that of A or that of B ? # reply format: chosen label
A
(A: 165 nM, B: 4000 nM)

* * *

Entries and their IC50 values follow.
# Tested on: M-NFS-60 cells
# protocolDetails: cells
# runConditions: 67 h, read-out: M-NFS-60 cell proliferation

Below are worked cases with known answers.
>>> recordedvalue("Cc1cn(-c2cc(Oc3ccc(NC(=O)NC(=O)C4(C)CCOCC4)nc3)ccn2)cn1")
"100 to 1000 nM"
>>> recordedvalue("Cc1cn(-c2cc(Oc3ccc(NC(=O)NC(=O)C4CCOC4)nc3C)ccn2)cn1 (stereo not shown)")
"100 to 1000 nM"
>>> recordedvalue("Cc1ncc(-c2cc(Oc3ccc(NC(=O)NC(=O)C4(C)CCOCC4)nc3)ccn2)o1")
"10 to 100 nM"

Attention now turns to another entry.
# assay system M-NFS-60 cells: give IC50 of Cn1cc(-c2cc(Oc3ccc(NC(=O)NC(=O)C4CC(C)(C)C4)nc3)ccn2)cn1
< 10 nM

* * *

# experimentalSystem: unphosphorylated c-FMS kinase (uFMS, Seq. ID no. 1) (Homo sapiens)
# Sequence (P07333 538-972): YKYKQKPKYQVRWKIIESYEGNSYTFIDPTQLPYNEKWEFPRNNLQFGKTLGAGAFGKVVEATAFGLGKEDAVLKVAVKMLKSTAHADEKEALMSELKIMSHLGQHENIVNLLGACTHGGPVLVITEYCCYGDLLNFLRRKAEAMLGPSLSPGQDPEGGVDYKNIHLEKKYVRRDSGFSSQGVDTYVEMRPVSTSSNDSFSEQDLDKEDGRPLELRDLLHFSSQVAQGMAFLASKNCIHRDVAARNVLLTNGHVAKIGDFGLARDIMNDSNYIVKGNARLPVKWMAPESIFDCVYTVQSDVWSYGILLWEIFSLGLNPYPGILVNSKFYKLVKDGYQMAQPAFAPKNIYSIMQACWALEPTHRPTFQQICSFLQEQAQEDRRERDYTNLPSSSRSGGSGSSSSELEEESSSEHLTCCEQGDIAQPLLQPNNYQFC
# protocolDetails: biochemical
# runConditions: uFMS, enzymatic assay, ATP 500 μM
IC50: recorded values

Consider the following illustrative entries.
>>> recordedvalue("CC(C)C(=O)NC(=O)Nc1ccc(Oc2ccnc(-c3ccc(C4CCN(C)CC4)cc3)c2)cn1 [Example 75]")
"< 10 nM"
>>> recordedvalue("Cc1nc(NC(=O)NC(=O)C(C)(C)C)ccc1Oc1ccnc(-c2ccc(C3CCN(C)CC3)cc2)c1 [Example 109]")
"< 10 nM"
>>> recordedvalue("COC(C)(C)C(=O)NC(=O)Nc1cc(C)c(Oc2ccnc(-c3cnn(C)c3)c2)c(C)n1 [Example 140]")
"< 10 nM"

Okay, now this molecule:
Report IC50 on unphosphorylated c-FMS kinase (uFMS, Seq. ID no. 1) (Homo sapiens) for this entry: CCOC(C)(C)C(=O)NC(=O)Nc1ccc(Oc2ccnc(-c3ccnc(C)c3)c2)cn1 [Example 161]
< 10 nM

* * *

The following compounds are shown together with reported IC50 values.
# experimentalSystem: unphosphorylated c-KIT kinase (uKIT, Seq. ID no. 2) (Homo sapiens)
# protocolDetails: biochemical
# runConditions: uKIT, enzymatic assay, ATP 2000 μM

Past entries and their recorded results:
>>> recordedvalue("Cc1cn(-c2cc(Oc3ccc(NC(=O)NC(=O)C4(C)CCOCC4)nc3)ccn2)cn1")
"0.1 to 1 µM"
>>> recordedvalue("Cc1ncc(-c2cc(Oc3ccc(NC(=O)NC(=O)C4CCOC4)nc3)ccn2)s1 (stereo not shown)")
"> 1 µM"
>>> recordedvalue("Cn1cc(-c2cc(Oc3ccc(NC(=O)NC(=O)C4(C(F)(F)F)CC4)nc3)ccn2)cn1")
"0.1 to 1 µM"

Now turn to the next compound.
Fill in IC50 for record Cc1cn(-c2cc(Oc3ccc(NC(=O)NC(=O)C4(C)CC4)nc3C)ccn2)cn1
> 1 µM

* * *

# experimentalSystem: unphosphorylated c-KIT kinase (uKIT, Seq. ID no. 2) (Homo sapiens)
# protocolDetails: biochemical
# runConditions: uKIT, enzymatic assay, ATP 2000 μM
Overview of recorded IC50 for various molecules

>>> recordedvalue("Cc1ccc(-c2cc(Oc3ccc(NC(=O)NC(=O)C4CCOC4)nc3)ccn2)cn1 (stereo not shown)")
"> 1000 nM"
>>> recordedvalue("COC(C)(C)C(=O)NC(=O)Nc1cc(C)c(Oc2ccnc(-c3cnn(C)c3)c2)c(C)n1")
"10 to 100 nM"
>>> recordedvalue("CCc1nc(NC(=O)NC(=O)C2CCOCC2)ccc1Oc1ccnc(-c2cnn(C)c2)c1")
"> 1000 nM"

Would you kindly look at the next entry?
Read the entry Cn1cc(-c2cc(Oc3ccc(NC(=O)NC(=O)CCC4(C(F)(F)F)CC4)nc3)ccn2)cn1 and write its reported IC50.
< 10 nM

* * *

# System: M-NFS-60 cells
# protocolDetails: cells
# runConditions: 67 h, read-out: M-NFS-60 cell proliferation
quantity: IC50

A selection of reference data follows.
>>> recordedvalue("COC(C)(C)C(=O)NC(=O)Nc1cc(C)c(Oc2ccnc(-c3cnn(C)c3)c2)cn1")
"< 0.01 µM"
>>> recordedvalue("Cn1cc(-c2cc(Oc3ccc(NC(=O)NC(=O)C4CCCC4)nc3)ccn2)cn1")
"< 0.01 µM"
>>> recordedvalue("COC(C)(C)C(=O)NC(=O)Nc1ccc(Oc2ccnc(-c3cnc(C)n3C)c2)cn1")
"0.1 to 1 µM"

Let us examine a further case.
State the measured IC50 (M-NFS-60 cells) of Cc1ncc(-c2cc(Oc3ccc(NC(=O)NC(=O)C(C)(C)C)nc3)ccn2)s1
0.01 to 0.1 µM

* * *

# System: M-NFS-60 cells
# protocolDetails: cells
# runConditions: 67 h, read-out: M-NFS-60 cell proliferation
quantity: IC50

Solved cases (3 shown):
>>> recordedvalue("Cc1nc(NC(=O)NC(=O)C2CCC(F)(F)CC2)ccc1Oc1ccnc(-c2cnn(C)c2)c1")
"< 0.01 µM"
>>> recordedvalue("Cc1ncc(-c2cc(Oc3ccc(NC(=O)NC(=O)C4CCOCC4)nc3C)ccn2)s1")
"0.1 to 1 µM"
>>> recordedvalue("CCOC(C)(C)C(=O)NC(=O)Nc1ccc(Oc2ccnc(-c3cnn(C)c3)c2)cn1")
"0.01 to 0.1 µM"

# input for lookup
Kindly indicate its recorded IC50. Item: Cn1cc(-c2cc(Oc3ccc(NC(=O)NC(=O)CC(C)(C)C(F)(F)F)nc3)ccn2)cn1
0.01 to 0.1 µM

* * *

# Tested on: M-NFS-60 cells
# protocolDetails: cells
# runConditions: 67 h, read-out: M-NFS-60 cell proliferation
quantity: IC50

>>> recordedvalue("Cc1cc(NC(=O)NC(=O)C(C)(C)C)nc(C)c1Oc1ccnc(-c2cnn(C)c2)c1 [Example 116]")
"10 to 100 nM"

Check the records and state IC50 for COC(C)(C)C(=O)NC(=O)Nc1cc(C)c(Oc2ccnc(-n3cnc(C)c3)c2)cn1 [Example 164]
< 10 nM

Output measured IC50 for this item: Cc1cn(-c2cc(Oc3ccc(NC(=O)NC(=O)C(C)C)nc3C)ccn2)cn1 [Example 134]
100 to 1000 nM

For the compound CCn1cc(-c2cc(Oc3ccc(NC(=O)NC(=O)C(C)C)nc3C)ccn2)cn1 [Example 61] , give its reported IC50.
10 to 100 nM
